These entries and their values trace back to patent US20190282704A1.

Molecular target: wildtype feline IL-31 (Feline_IL31_wildtype) (feline)
Sequence (chain, as listed by the source limits assumed, form in doubt): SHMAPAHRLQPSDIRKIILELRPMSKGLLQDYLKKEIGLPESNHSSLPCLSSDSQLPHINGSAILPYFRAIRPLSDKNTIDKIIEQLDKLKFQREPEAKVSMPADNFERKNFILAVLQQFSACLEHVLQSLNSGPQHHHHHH
Experiment: indirect ELISA, coated IL-31; note: test concentration or dose not given here
Below, each entry is listed alongside its reported Binding (ELISA OD).
I only need the number, in OD, no unit after it.

Illustrative cases are given below, each with its answer.
binder	Binding (ELISA OD)
ZIL1 (antibody, V domains shown) VH: EVQLVESGGDLVKPGGSLRLSCVASGFTFSSYGMSWVRQAPGKGLQWVAHINSGGSSTYYADAVKGRFTISRDNAKNTLYLQMNSLRAEDTAVYYCVEVYTTLAAFWTDNFDYWGQGTLVTVSS VL: QSVLTQPTSVSGSLGQRVTISCSGSTNNIGILAATWYQQLPGKAPKVLVYSDGNRPSGVPDRFSGSKSGNSATLTITGLQAEDEADYYCQSFDTTLDAYVFGSGTQLTVLR	1.89
mouse anti IL-31 antibody 15H05 (antibody, V domains shown) VH: QVQLQQSAAELARPGASVKMSCKTSGYTFTSYTIHWIKQRPGQGLEWIGNINPTSGYTENNQRFKDKTTLTVDRSSNTAYLQLHSLTSEDSAVYFCARWGFKYDGEWSFDVWGAGTTVTVSS VL: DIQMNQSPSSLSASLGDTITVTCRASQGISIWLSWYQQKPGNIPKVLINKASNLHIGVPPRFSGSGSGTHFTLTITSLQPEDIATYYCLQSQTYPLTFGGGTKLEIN	1.94
ZIL94 (antibody, V domains shown) VH: EVQLVDSGGDLVKPGGSLRLSCVASGFTFSTYFMSWVRQAPGRGLQWVALISSDGSGTYYADAVKGRFTISRDNAKNTLYLQMNSLRAEDTAMYYCAIFWRAFNDWGQGTLVTVSS VL: QTVVIQEPSLSVSPGGTVTLTCGLNSGSVSTSNYPGWYQQTRGRTPRTIIYDTGSRPSGVPNRFSGSISGNKAALTITGAQPEDEADYYCSLYTDSDILVFGGGTHLTVLR	1.67
ZIL171 (antibody, V domains shown) VH: EVQLVESGGDLVKPAGSLRLSCVASGFTFRTYVMNWVRQAPGKGLQWVASINGGGSSPTYADAVRGRFTVSRDNAQNSLFLQMNSLRAEDTAIYFCVVSMVGPFDYWGHGTLVTVSS VL: SSVLTQPPSVSVSLGQTATISCSGKSLSYYYAQWFQQKAGQAPVLVIYKDTERPSGIPDRFSGSSSGNTHTLTISGARAEDEADYYCESAVSSDTIVFGGGTHLTVLR	1.42
ZIL9 (antibody, V domains shown) VH: EVQLVESGGDLVKPPGSLRLSCVASGFTFSSYDMTWVRQAPGKGLQWVADVNSGGTGTAYAVAVKGRFTISRDNAKKTLYLQMNSLRAEDTAVYYCAKLGVRDGLSVWGQGTLVTVSS VL: SSVLTQPPSVSVSLGQTATISCSGESLNEYYTQWFQQKAGQAPVLVIYRDTERPSGIPDRFSGSSSGNTHTLTISGARAEDEADYYCESAVDTGTLVFGGGTHLAVLR	1.8

Data request: // query Binding (ELISA OD) value for entry ZIL69 (antibody, V domains shown) VH: EVQLVESGGDLVKPAGSLRLSCVASGFTFSSYAMKWVRQAPGKGLQWVATINNDGTRTGYADAVRGRFTISKDNAKNTLYLQMDSLRADDTAVYYCTKGNAESGCTGDHCPPYWGQGTLVTVSS VL: SSVLTQPPSVSVSLGQTATISCSGESLNKYYAQWFQQKAGQAPVLVIYKDTERPSGIPDRFSGSSAGNTHTLTISGARAEDEADYYCESAVSSETNVFGSGTQLTVLR
Data returned: 1.48

Data request: // query Binding (ELISA OD) value for entry ZIL159 (antibody, V domains shown) VH: EVQLVESGGDLVKPAGSLRLSCVASGFTFSSYVMTWVRQAPGKGLQWVAGINSEGSRTAYADAVKGRFTISRDNAKNTLYLQIDSLRAEDTAIYYCATGDIVATGTSYWGQGTLVTVSS VL: SNVLTQPPSVSVSLGQTATISCSGETLNRFYTQWFQQKAGQAPVLVIYKDTERPSGIPDRFSGSSSGNIHTLTISGARAEDEAAYYCKSAVSIDVGVFGGGTHLTVFR
Data returned: 1.6
